measurement target: N-terminally GST-tagged human full length recombinant Mps-1 kinase (Homo sapiens)
Construct: N-terminally GST-tagged human full length recombinant Mps-1 kinase; purchased Invitrogen, Karslruhe, Germany PV4071
assay explanation: Mps-1 kinase assay (TR-FRET)
Format: biochemical
condition label: Mps1 IC50 [nM], 10 μM ATP, 1 μM peptide substrate, 60 min at 22° C.
IC50: recorded values
A number alone suffices; assume nM.

Data request: Form: Entry = "Cc1cc(-c2cnc3c(NCC(C)(C)O)cc(O[C@H]4CCNC4=O)nn23)ccc1C(=O)NC1CC1" | System = N-terminally GST-tagged human full length recombinant Mps-1 kinase (Homo sapiens) | IC50 = ____
Data returned: 32.4

Continuing:
Data request: Form: Entry = "Cc1cc(-c2cnc3c(NCCN(C)C)cc(Oc4ccc(Cl)cc4)nn23)ccc1C(=O)NC1CC1" | System = N-terminally GST-tagged human full length recombinant Mps-1 kinase (Homo sapiens) | IC50 = ____
Data returned: 0.7

====

measurement target: N-terminally GST-tagged human full length recombinant Mps-1 kinase (Homo sapiens, UniProt P33981)
Construct: N-terminally GST-tagged human full length recombinant Mps-1 kinase; purchased Invitrogen, Karslruhe, Germany PV4071
Sequence (P33981 whole entry): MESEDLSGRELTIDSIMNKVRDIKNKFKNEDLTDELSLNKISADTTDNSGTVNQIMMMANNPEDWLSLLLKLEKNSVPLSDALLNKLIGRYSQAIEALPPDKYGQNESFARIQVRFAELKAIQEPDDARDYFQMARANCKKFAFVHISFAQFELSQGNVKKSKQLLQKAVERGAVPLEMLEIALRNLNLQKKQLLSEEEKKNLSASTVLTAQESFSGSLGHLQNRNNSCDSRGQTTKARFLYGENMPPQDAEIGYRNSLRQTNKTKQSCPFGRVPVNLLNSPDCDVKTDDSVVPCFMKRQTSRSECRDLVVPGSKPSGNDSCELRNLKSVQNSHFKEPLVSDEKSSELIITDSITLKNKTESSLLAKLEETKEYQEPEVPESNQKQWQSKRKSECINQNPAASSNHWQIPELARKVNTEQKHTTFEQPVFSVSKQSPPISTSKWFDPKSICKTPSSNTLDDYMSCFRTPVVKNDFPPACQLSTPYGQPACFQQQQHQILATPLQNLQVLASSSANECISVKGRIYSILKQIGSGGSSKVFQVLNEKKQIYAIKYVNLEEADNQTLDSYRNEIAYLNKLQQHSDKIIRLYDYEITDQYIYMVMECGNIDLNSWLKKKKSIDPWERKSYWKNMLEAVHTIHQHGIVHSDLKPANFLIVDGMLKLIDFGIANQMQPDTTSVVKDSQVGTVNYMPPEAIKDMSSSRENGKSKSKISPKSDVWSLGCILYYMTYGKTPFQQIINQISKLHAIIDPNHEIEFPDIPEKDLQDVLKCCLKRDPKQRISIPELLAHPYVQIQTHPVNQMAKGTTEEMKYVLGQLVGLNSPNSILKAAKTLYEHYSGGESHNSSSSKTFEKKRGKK
assay explanation: Mps-1 kinase assay (TR-FRET)
Format: biochemical
condition label: Mps1 IC50 [nM], 10 μM ATP, 1 μM peptide substrate, 60 min at 22° C.
endpoint: IC50 (nM)

Data request: Any idea what its IC50 is? The compound is "Cc1nnc(-c2ccc(-c3cc(NCC(C)C)c4ncc(-c5ccc(C(=O)NC6CC6)cc5)n4n3)cc2)o1"
Data returned: 1.5

(a) Cc1cc(-c2cnc3c(NCC(C)(C)O)cc(Nc4ccccc4CO)nn23)ccc1C(=O)NC1CC1
(b) Cc1cc(-c2cnc3c(NCC(C)(C)O)cc(S(C)(=O)=O)nn23)ccc1C(=O)NC1CC1
Data request: Between a and b , which one shows the larger IC50 value? Provide the label of your selected option as the answer.
Data returned: b

====

measurement target: N-terminally GST-tagged human full length recombinant Mps-1 kinase (Homo sapiens, UniProt P33981)
Construct: N-terminally GST-tagged human full length recombinant Mps-1 kinase; purchased Invitrogen, Karslruhe, Germany PV4071
assay explanation: Mps-1 kinase assay (TR-FRET)
Assay type: biochemical
condition label: Mps1 IC50 [nM], 10 μM ATP, 1 μM peptide substrate, 60 min at 22° C.
endpoint: IC50 (nM)

Data request: Any idea what its IC50 is? The compound is CC(C)(O)CNc1cc(-c2ccc(F)cc2)nn2c(-c3ccc(-c4cnc(C5CC5)[nH]4)cc3)cnc12 [Example 8]
Data returned: 111

(A) Cc1cc(-c2cnc3c(NC[C@@H]4CCCO4)cc(-c4ccnn4C)nn23)ccc1C(=O)NC1CC1 [Example 34]
(B) CNC(=O)c1ccc(-c2cnc3c(NCCOC)cc(Oc4cc(F)ccc4C)nn23)cc1C [Example 585]
(C) Cc1cc(-c2cnc3c(NCCN4CCOCC4)cc(Oc4ccc(F)c(F)c4)nn23)ccc1C(=O)NC1CC1 [Example 540]
(D) CNC(=O)c1ccc(-c2cnc3c(NCc4cccs4)cc(Cl)nn23)cc1 [Example 190]
Data request: Arrange items by their IC50 values in increasing order. Labels, requested order.
Data returned: C, A, B, D
(C: 0.1 nM, A: 2.4 nM, B: 5.4 nM, D: 660 nM)
